The measurements presented in this section are drawn from ChEMBL document CHEMBL1129609.

Assay: Antiviral activity against influenza A,H2N2 virus infected MDCK cell lines.
Assay type: functional
Recorded MIC50, one value per entry.
RESULT TYPE: MIC50 (µg/mL)

compound="CC(C)(C)C1CCCN1CC12CC3CC(CC(C3)C1)C2 (stereo not given)" quantity_unit=µg/mL censoring_qualifier=> assay_value=100
compound="CCN1CCCCC12C1CC3CC(C1)CC2C3 (stereo not given)" quantity_unit=µg/mL censoring_qualifier== assay_value=31
compound=C1CCC2(C1)CCCN2CC12CC3CC(CC(C3)C1)C2 quantity_unit=µg/mL censoring_qualifier=> assay_value=60
compound="CN1CCCC1C12CC3CC(CC(C3)C1)C2 (stereo not given)" quantity_unit=µg/mL censoring_qualifier== assay_value=16.5
compound="CC(N)C12CC3CC(CC(C3)C1)C2 (stereo not given)" quantity_unit=µg/mL censoring_qualifier=< assay_value=0.14
compound=C1CCC2(CC1)CCCN2CC12CC3CC(CC(C3)C1)C2 quantity_unit=µg/mL censoring_qualifier=> assay_value=100
compound="C1CCC2(NC1)C1CC3CC(C1)CC2C3 (stereo not given)" quantity_unit=µg/mL censoring_qualifier== assay_value=0.24
compound="CCN1CCCC1C12CC3CC(CC(C3)C1)C2 (stereo not given)" quantity_unit=µg/mL censoring_qualifier=> assay_value=14
compound=CNC1(C23CC4CC(CC(C4)C2)C3)CCCC1 quantity_unit=µg/mL censoring_qualifier== assay_value=9
compound="CN1CCCCC12C1CC3CC(C1)CC2C3 (stereo not given)" quantity_unit=µg/mL censoring_qualifier== assay_value=0.58
compound="CCCCN1CCCC1C12CC3CC(CC(C3)C1)C2 (stereo not given)" quantity_unit=µg/mL censoring_qualifier== assay_value=44.5
compound="CN(C)CC1CCCN1C12CC3CC(CC(C3)C1)C2 (stereo not given)" quantity_unit=µg/mL censoring_qualifier== assay_value=32.5
compound=NC12CC3CC(CC(C3)C1)C2 quantity_unit=µg/mL censoring_qualifier== assay_value=0.8
compound=NC(=O)c1ncn([C@@H]2O[C@H](CO)[C@@H](O)[C@H]2O)n1 quantity_unit=µg/mL censoring_qualifier== assay_value=48.7
compound=NC1(C23CC4CC(CC(C4)C2)C3)CCCC1 quantity_unit=µg/mL censoring_qualifier== assay_value=2.5

###

Recorded MIC50, one value per entry.
Test system: MDCK
Assay: Antiviral activity tested against influenza A,H1N1 virus infected MDCK cell lines.
Type: functional
Details: Canis lupus familiaris
RESULT TYPE: MIC50 (mg/L)

molecule=CNC1(C23CC4CC(CC(C4)C2)C3)CCCC1 tgt=MDCK quantity_unit=mg/L censoring_qualifier== assay_value=59
molecule="CN1CCOCC12C1CC3CC(C1)CC2C3 (configuration not stated)" tgt=MDCK quantity_unit=mg/L censoring_qualifier== assay_value=22
molecule="CCCCN1CCCC1C12CC3CC(CC(C3)C1)C2 (configuration not stated)" tgt=MDCK quantity_unit=mg/L censoring_qualifier== assay_value=4
molecule="NC12CC3CC(CC(C3)C1)C2 [AMANTADINE]" tgt=MDCK quantity_unit=mg/L censoring_qualifier== assay_value=48
molecule="CN1CCCCC12C1CC3CC(C1)CC2C3 (configuration not stated)" tgt=MDCK quantity_unit=mg/L censoring_qualifier== assay_value=6.2
molecule="C1CCC2(NC1)C1CC3CC(C1)CC2C3 (configuration not stated)" tgt=MDCK quantity_unit=mg/L censoring_qualifier=> assay_value=35
molecule=CC1(C)CCCN1CC12CC3CC(CC(C3)C1)C2 tgt=MDCK quantity_unit=mg/L censoring_qualifier=> assay_value=150
molecule="CCN1CCCC1C12CC3CC(CC(C3)C1)C2 (configuration not stated)" tgt=MDCK quantity_unit=mg/L censoring_qualifier=> assay_value=34
molecule="C1COCC2(N1)C1CC3CC(C1)CC2C3 (configuration not stated)" tgt=MDCK quantity_unit=mg/L censoring_qualifier== assay_value=29
molecule=NC1(C23CC4CC(CC(C4)C2)C3)CCCC1 tgt=MDCK quantity_unit=mg/L censoring_qualifier=> assay_value=64
molecule="CC(C)(C)C1CCCN1CC12CC3CC(CC(C3)C1)C2 (configuration not stated)" tgt=MDCK quantity_unit=mg/L censoring_qualifier=> assay_value=104
molecule="CCN1CCOCC12C1CC3CC(C1)CC2C3 (configuration not stated)" tgt=MDCK quantity_unit=mg/L censoring_qualifier=> assay_value=10
molecule="CN(C)CC1CCCN1C12CC3CC(CC(C3)C1)C2 (configuration not stated)" tgt=MDCK quantity_unit=mg/L censoring_qualifier=> assay_value=70
molecule="C1CNC(C23CC4CC(CC(C4)C2)C3)C1 (configuration not stated)" tgt=MDCK quantity_unit=mg/L censoring_qualifier== assay_value=15.8
molecule="NC(=O)c1ncn([C@@H]2O[C@H](CO)[C@@H](O)[C@H]2O)n1 [RIBAVIRIN]" tgt=MDCK quantity_unit=mg/L censoring_qualifier== assay_value=19
molecule=C1CCC2(CC1)CCCN2CC12CC3CC(CC(C3)C1)C2 tgt=MDCK quantity_unit=mg/L censoring_qualifier=> assay_value=150
molecule=CN(C)C1(C23CC4CC(CC(C4)C2)C3)CCCC1 tgt=MDCK quantity_unit=mg/L censoring_qualifier=> assay_value=80
molecule="CN1CCCC1C12CC3CC(CC(C3)C1)C2 (configuration not stated)" tgt=MDCK quantity_unit=mg/L censoring_qualifier=> assay_value=34
molecule="CCN1CCCCC12C1CC3CC(C1)CC2C3 (configuration not stated)" tgt=MDCK quantity_unit=mg/L censoring_qualifier== assay_value=4.4
molecule="CN(C)CC1CCN(C23CC4CC(CC(C4)C2)C3)C1 (configuration not stated)" tgt=MDCK quantity_unit=mg/L censoring_qualifier=> assay_value=36
molecule="CC(N)C12CC3CC(CC(C3)C1)C2 (configuration not stated) [RIMANTADINE]" tgt=MDCK quantity_unit=mg/L censoring_qualifier== assay_value=28
molecule=C1CCC2(C1)CCCN2CC12CC3CC(CC(C3)C1)C2 tgt=MDCK quantity_unit=mg/L censoring_qualifier=> assay_value=150
